System Under Test: human GLP-1 receptor (Homo sapiens)
Construct: expressed in transfected cells; host or cells: BHK (Baby Hamster Kidney) cells, clone BHK 467-12A KZ-10, stably transfected, with CRE-luciferase reporter
Sequence (P43220 24-463): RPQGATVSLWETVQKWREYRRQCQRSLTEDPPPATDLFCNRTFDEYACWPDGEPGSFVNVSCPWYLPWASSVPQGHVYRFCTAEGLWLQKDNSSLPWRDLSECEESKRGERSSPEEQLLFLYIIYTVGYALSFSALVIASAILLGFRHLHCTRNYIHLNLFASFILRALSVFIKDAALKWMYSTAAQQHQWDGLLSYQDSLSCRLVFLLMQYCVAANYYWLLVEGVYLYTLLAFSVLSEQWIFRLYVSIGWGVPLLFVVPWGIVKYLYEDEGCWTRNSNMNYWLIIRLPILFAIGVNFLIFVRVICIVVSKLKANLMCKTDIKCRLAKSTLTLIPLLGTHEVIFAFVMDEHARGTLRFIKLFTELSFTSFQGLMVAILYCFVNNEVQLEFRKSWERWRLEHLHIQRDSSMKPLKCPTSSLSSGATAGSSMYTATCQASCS
Experiment: Human GLP-1 receptor in vitro potency assay (CRE-luciferase reporter, BHK cells)
Assay type: cell-based
Particulars: Table 4a; BHK cells expressing human GLP-1R, CRE-Luc, 3 hours; read-out: Human GLP-1R potency [EC50 (pM)]
Starred links: 1 amine or outer side, 2 acyl side, 3 side chain; linkers in the order of their positions; H or OH if unused. Non-standard residues stand in square brackets, D forms with d. Groups on a side chain read outwards from the residue. *: point of attachment. C20 diacid = O=C(O)CCCCCCCCCCCCCCCCCCC(=O)*; C18 diacid = O=C(O)CCCCCCCCCCCCCCCCC(=O)*; C16 diacid = O=C(O)CCCCCCCCCCCCCCC(=O)*; γGlu = O=C(O)[C@H](CCC(=O)[*:2])N[*:1]; εLys = N[C@@H](CCCCN[*:1])C(=O)[*:2]; Trx = NC[C@H]1CC[C@H](C(=O)O)CC1; AEEA = NCCOCCOCC(=O)O; Aib = CC(C)(N)C(=O)O; Ahx = NCCCCCC(=O)O
Property Label: EC50 (pM)
# value in pM; strip the unit string

Past entries and their recorded results:
Substance | System Under Test | EC50 (pM)
H-H[Aib]EGTFTSDVSK([AEEA-AEEA-γGlu-C16 diacid])YLEEQAARK([AEEA-AEEA-γGlu-C16 diacid])FIAWLVRGRQEASELSTAALGRLSAELHELATLPRTETGSGSP-NH2 [Compound 0578] | human GLP-1 receptor (Homo sapiens) | 2.5
H-H[Aib]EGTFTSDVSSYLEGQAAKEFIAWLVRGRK([AEEA-AEEA-γGlu-C18 diacid])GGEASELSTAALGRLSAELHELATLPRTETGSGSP-NH2 [Compound 0042] | human GLP-1 receptor (Homo sapiens) | 16.2
HWEGTFTSD-K([(2S)-2-Amino-6-[[2-[2-[2-[[2-[2-[2-[[(4S)-4-Carboxy-4-[[4-[(19-Carboxynonadecanoylamino)Methyl]Cyclohexanecarbonyl]Amino]Butanoyl]Amino]Ethoxy]Ethoxy]Acetyl]Amino]Ethoxy]Ethoxy]Acetyl]Amino]Hex Anoyl])-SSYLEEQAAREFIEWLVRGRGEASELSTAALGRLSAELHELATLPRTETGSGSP-amide [Compound 0433] | human GLP-1 receptor (Homo sapiens) | 30.7
H-H[Aib]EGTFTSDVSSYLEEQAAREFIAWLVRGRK([Ahx-Ahx-γGlu-C20 diacid])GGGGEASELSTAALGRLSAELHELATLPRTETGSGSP-NH2 [Compound 0659] | human GLP-1 receptor (Homo sapiens) | 4.7
H-HAEGTFTSDVSSYLEEK([AEEA-AEEA-γGlu-Trx-C20 diacid])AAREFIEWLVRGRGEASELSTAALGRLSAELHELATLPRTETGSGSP-NH2 [Compound 0414] | human GLP-1 receptor (Homo sapiens) | 11.2

Which value of EC50 has been reported for H-H[Aib]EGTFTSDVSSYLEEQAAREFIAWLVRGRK([εLys-εLys-γGlu-C20 diacid])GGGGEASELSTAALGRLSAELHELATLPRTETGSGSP-NH2 [Compound 0657] in the records?
9.9

Now this one: H-H[Aib]EGTFTSDVSRYLEEQAAREFIEWLVRGRK([AEEA-AEEA-γGlu-Trx-C20 diacid])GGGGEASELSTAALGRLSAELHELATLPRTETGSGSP-NH2 [Compound 0511]
8.8

Could you do the same for H-H[Aib]EGTFTSDVSK([AEEA-AEEA-γGlu-C16 diacid])YLEEQAARK([AEEA-AEEA-γGlu-C16 diacid])FIEWLVRGAAEASELSTAALGRLSAELHELATLPRTETGSGSP-NH2 [Compound 0629] , please?
7.9

Moving on to the next substance: H-H[Aib]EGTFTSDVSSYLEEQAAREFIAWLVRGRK([AEEA-AEEA-γGlu-C18 diacid])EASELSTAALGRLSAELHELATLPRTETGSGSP-NH2 [Compound 0115]
2.2

And what about the substance H-H[Aib]EGTFTSDVSSYLEK([AEEA-AEEA-γGlu-C16 diacid])QAAREFIAWLVRGRGGGGGASELSTAALGRLSK([AEEA-AEEA-γGlu-C16 diacid])ELHELATLPRTETGSGSP-NH2 [Compound 0294] ?
13.7

Same thing, different substance: H-H[Aib]EGTFTSDVSSYLEGQAAK([εLys-AEEA-AEEA-γGlu-C18 diacid])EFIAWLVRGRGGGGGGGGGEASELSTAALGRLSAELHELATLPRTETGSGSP-NH2 [Compound 0159]
30.3

Now the substance H-H[Aib]EGTFTSDK([AEEA-AEEA-γGlu-C16 diacid])SSYLEEQAAREFIAWLVRGRGGGGGEASELSTAALGRLSAELHELATLK([AEEA-AEEA-γGlu-C16 diacid])RTETGSGSP-NH2 [Compound 0261]
17.4

Likewise for H-H[Aib]EGTFTSDVSSYLEGQAAK([AEEA-AEEA-γGlu-C18 diacid])EFIAWLVRGRGGGGGGGGGGGGGGGGGEASELSTAALGRLSAELHELATLPRTETGSGSP-NH2 [Compound 0093] ?
7.5
